Protocol description: PK study in male Sprague Dawley rats, IV 1 mg/kg and PO 10 mg/kg (Example 4)
Type: in vivo
Test conditions: male, Sprague-Dawley, rat, in vivo, iv, 1 mg/kg, MRTinf

Molecule: Cc1cc(Nc2cc(N)ncn2)c(=O)n2c1C(=O)NC21CCC2(CC2)CC1 [4ET-03-053]
MRT inf / h: 7.24

###

Protocol description: PK study in male Sprague-Dawley rats dosed once per day for five days, PO 25 mg/kg, 0.5% HPMC (Example 8)
Assay type: in vivo
Test conditions: male, Sprague-Dawley, rat, in vivo, po, 25 mg/kg, after the last of five daily 25 mg/kg PO doses, 0.5% HPMC suspension, at 24 hr, read-out: last measurable concentration
Quantity: concentration at 24 h (ng/mL)

Structure: Cc1cc(Nc2cc(N)ncn2)c(=O)n2c1C(=O)NC21CCC2(CC2)CC1
Val: 5890

###

Protocol description: PK study in male Sprague-Dawley rats dosed once per day for five days, PO 1 mg/kg, 0.5% HPMC (Example 6)
Assay type: in vivo
Test conditions: male, Sprague-Dawley, rat, in vivo, po, 1 mg/kg, male Sprague-Dawley rats, single PO 1 mg/kg, 0.5% HPMC suspension; read-out: terminal half-life (t1/2) (converted)

Compound: Cc1cc(Nc2cc(N)ncn2)c(=O)n2c1C(=O)NC21CCC2(CC2)CC1 [4ET-03-053]
half-life: 5.73 h

###

Protocol description: PK study in male Sprague Dawley rats, IV 1 mg/kg and PO 10 mg/kg (Example 4)
Type: in vivo
Test conditions: male, Sprague-Dawley, rat, in vivo, iv, 1 mg/kg, male SD rats, 1 mg/kg IV, individual animals; read-out: AUCinf
Quantity: AUC(0-inf) (ng·h/mL)

Structure: Cc1cc(Nc2cc(N)ncn2)c(=O)n2c1C(=O)NC21CCC2(CC2)CC1
Val: 53100

###

Protocol description: PK study in CD-1 male mice with IV and PO dosing (Example 3)
Assay type: in vivo
Test conditions: male, CD-1, mouse, in vivo, po, 10 mg/kg, Cmax

Structure: Cc1cc(Nc2cc(N)ncn2)c(=O)n2c1C(=O)NC21CCC2(CC2)CC1
Cmax / ng/mL: 807

###

Protocol description: PK study in male Sprague Dawley rats, IV 1 mg/kg and PO 10 mg/kg (Example 4)
Assay type: in vivo
Test conditions: male, Sprague Dawley, rat, in vivo, iv, 1 mg/kg, total systemic exposure (AUCinf)

Structure: Cc1cc(Nc2cc(N)ncn2)c(=O)n2c1C(=O)NC21CCC2(CC2)CC1
Units text: ng·h/mL
AUC(0-inf): 51500

###

Protocol description: PK study in male Sprague-Dawley rats dosed once per day for five days, PO 1 mg/kg, 0.5% HPMC (Example 6)
Type: in vivo
Test conditions: male, Sprague-Dawley, rat, in vivo, po, 1 mg/kg, Sprague-Dawley rats, after five daily PO doses of 1 mg/kg, 0.5% HPMC suspension, at 24 hr; read-out: last measurable concentration
Quantity: concentration at 24 h

Compound: Cc1cc(Nc2cc(N)ncn2)c(=O)n2c1C(=O)NC21CCC2(CC2)CC1 [4ET-03-053]
Quantity: concentration at 24 h
Val: 278 ng/mL

###

Protocol description: PK study in male Sprague Dawley rats, IV 1 mg/kg and PO 10 mg/kg (Example 4)
Assay type: in vivo
Test conditions: male, Sprague-Dawley, rat, in vivo, iv, 1 mg/kg, AUClast
Quantity: AUC(0-t) (ng·h/mL)

Structure: Cc1cc(Nc2cc(N)ncn2)c(=O)n2c1C(=O)NC21CCC2(CC2)CC1
Val: 51100

This collection of values is drawn from patent US20250186436A1.
